experimental-protocol: Cell Viability - LYMP2-011 (AID 969);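 also: cells exposed to compound for 24 hours; nearly all actives have a fitted effect of over 60% in size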
condition-label: LYMP2-011 lymphoblastoid cells viability; series mostly up to 92.2 µM
Inconclusive results are not listed. Active and inactive are the calls of the source. Calls follow the shape of the dose curve; as a rule, active = well fitted cell-killing curve with a large enough effect; inconclusive = small, poorly fitted or top-dose-only effect; inactive = flat fitted curve, though single readings scatter.
Outcome codes: active, inactive

{"compound": "N#CCc1ccccc1[N+](=O)[O-]", "category": "inactive"}
{"compound": "O=c1[nH][nH]c(=O)c2cc([N+](=O)[O-])ccc12", "category": "inactive"}
{"compound": "O=C(Cl)c1ccccc1[N+](=O)[O-]", "category": "inactive"}
{"compound": "ClC/C=C/CCl", "category": "inactive"}
{"compound": "CC(=O)CC(C)C", "category": "inactive"}
{"compound": "c1ccc(Nc2ccccc2)cc1", "category": "inactive"}
{"compound": "CCN(Cc1ccccc1)c1ccccc1", "category": "inactive"}
{"compound": "O=[N+]([O-])c1ccc(NCCO)c(OCCO)c1", "category": "inactive"}
{"compound": "Nc1cc(S(=O)(=O)O)ccc1O", "category": "inactive"}
{"compound": "NC(=O)c1ccccc1[N+](=O)[O-]", "category": "inactive"}
{"compound": "O=Cc1ccc(Cl)cc1", "category": "inactive"}
{"compound": "CC1=C(/C=C/C(C)=C/C=C/C(C)=C\\C=O)C(C)(C)CCC1", "category": "active"}
{"compound": "CNc1ccccc1", "category": "inactive"}
{"compound": "CCOc1cc(OCC)c(C(C)=O)cc1OCC", "category": "inactive"}
{"compound": "Cc1ccc(C)o1", "category": "inactive"}
{"compound": "CCCC=O", "category": "inactive"}
{"compound": "Cc1ccc(Cl)cc1", "category": "inactive"}
{"compound": "CC(=O)c1ccccc1[N+](=O)[O-]", "category": "inactive"}
{"compound": "Cc1ccc(C(=O)O)cc1", "category": "inactive"}
{"compound": "CCC=O", "category": "inactive"}
{"compound": "CCCOCC(C)O (centres undefined)", "category": "inactive"}
{"compound": "c1ccc2c(c1)Oc1ccccc1S2", "category": "inactive"}
{"compound": "NS(=O)(=O)O", "category": "inactive"}
{"compound": "CNc1ccc([N+](=O)[O-])cc1", "category": "inactive"}
{"compound": "COc1ccc(N)c(OC)c1", "category": "inactive"}
{"compound": "Nc1cccc([N+](=O)[O-])c1", "category": "inactive"}
{"compound": "NC(=O)c1cccc([N+](=O)[O-])c1", "category": "inactive"}
{"compound": "O=C1NC(=O)c2cc([N+](=O)[O-])ccc21", "category": "inactive"}
{"compound": "CC#N", "category": "inactive"}
{"compound": "Cc1cc(C(=O)O)ccc1[N+](=O)[O-]", "category": "inactive"}
{"compound": "O=C(Cl)c1cccc([N+](=O)[O-])c1", "category": "inactive"}
{"compound": "Cc1nc2ccc(Cl)cc2[nH]1", "category": "inactive"}
{"compound": "NC(=O)/N=N/C(N)=O", "category": "inactive"}
{"compound": "CC1CCCO1 (centres undefined)", "category": "inactive"}

----------
experimental-protocol: Cell Viability - Renal Proximal Tubule (AID 545);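 also: cells exposed to compound for 40 hours; nearly all actives have a fitted effect of over 40% in size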
condition-label: renal proximal tubule cells viability, primary cells of rat origin; series mostly up to 91.7 µM
Source text: NIH Chemical Genomics Center [NCGC] NIH Molecular Libraries Screening Centers Network [MLSCN] National Institutes of Environmental Health Sciences [NIEHS] National Toxicology Program [NTP] We have developed a 1536-well cell-based assay for quantitative high throughput screening (qHTS) against a number of cell lines to determine in vitro cytotoxicity of small molecules. […] 8. Detection; Luminescence; Viewlux plate reader […]
Inconclusive results are not listed. Active and inactive are the calls of the source. Calls come from the whole dose curve; as a rule, active = well fitted cell-killing curve with a large enough effect; inconclusive = small, poorly fitted or top-dose-only effect; inactive = flat fitted curve, though single readings scatter.
Outcome codes: 1 for active, -1 for inactive

{"molecule": "Fc1ccccc1", "category": -1}
{"molecule": "O=Cc1ccc(C(=O)O)cc1", "category": -1}
{"molecule": "C=CC(=O)OCCCC", "category": -1}
{"molecule": "COc1ccc(N)c(C)c1", "category": -1}
{"molecule": "Cc1ccc(C(=O)O)cc1", "category": -1}
{"molecule": "C1CCCC1", "category": -1}
{"molecule": "Nc1nc(-c2ccccc2)cs1", "category": -1}
{"molecule": "ICCc1ccccc1", "category": -1}
{"molecule": "Nc1nc(CC(=O)O)cs1", "category": -1}
{"molecule": "Nc1cc(Cl)c([N+](=O)[O-])cc1O", "category": -1}
{"molecule": "COC(=O)CCC(=O)OC", "category": -1}
{"molecule": "CCCCC(CC)C(=O)O (stereo not given)", "category": -1}
{"molecule": "Cc1ccc(Br)cc1", "category": -1}
{"molecule": "CC(=O)OCc1ccco1", "category": -1}
{"molecule": "CC1=C(/C=C/C(C)=C/C=C/C(C)=C\\C=O)C(C)(C)CCC1", "category": 1}
{"molecule": "Cc1ccc(C(C)(C)C)cc1", "category": -1}
{"molecule": "CC(=O)Nc1ccccc1C", "category": -1}
{"molecule": "Cc1ccc(C#N)cc1", "category": -1}
{"molecule": "C=CCCCC", "category": -1}
{"molecule": "CCOc1ccccc1N", "category": -1}
